- targetEntity: UniProtKB P08908
- Sequence (P08908 1-422): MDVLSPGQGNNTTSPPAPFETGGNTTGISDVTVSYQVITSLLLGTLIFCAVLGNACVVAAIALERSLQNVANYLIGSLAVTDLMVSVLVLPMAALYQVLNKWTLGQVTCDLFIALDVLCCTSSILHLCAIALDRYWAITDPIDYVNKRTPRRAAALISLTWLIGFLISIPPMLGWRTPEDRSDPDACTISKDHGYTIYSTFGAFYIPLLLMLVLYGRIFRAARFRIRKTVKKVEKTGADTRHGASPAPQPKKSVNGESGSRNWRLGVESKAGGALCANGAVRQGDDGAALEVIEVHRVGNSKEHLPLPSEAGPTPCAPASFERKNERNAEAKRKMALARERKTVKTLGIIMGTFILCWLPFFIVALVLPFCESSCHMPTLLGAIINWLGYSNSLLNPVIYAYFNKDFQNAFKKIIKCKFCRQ
- assayInfo: Serotonin (5HT) receptor binding action (RBA; in vitro), 5HT1A
- testContext: method of JP98/01481 or JP-A 10-281752
Structures can show the parent of a compound that is named as a salt.
Exercise: state measured Ki for each of the molecules provided.
Give bare numbers, in nM.

Please review the entries below; each comes with its answer.
CCCNC(=O)c1ccc(-c2cc3ccccc3c(N3CCN(CC)CC3)n2)cc1 [(18), hydrochloride] | 14.6
CC(C)(O)COc1ccc(-c2cc3sccc3c(N3CCN(CCO)CC3)n2)cc1.Cl [(27), hydrochloride] | 1530
CC(=O)NCc1ccc2ccn(C3CCN(CCc4ccccc4F)CC3)c2c1 | 1.58
CCC(O)c1ccc(-c2cc3ccccc3c(N3CCN(CC)CC3)n2)cc1 (centres unmarked) | 6.9
CCN1CCN(c2nc(-c3ccc(OCC(C)O)cc3)cc3sccc23)CC1.Cl (centres unmarked) [(24), hydrochloride] | 27.9

Could I get Ki for every one of these entries?
1. CC(=O)NCc1ccc2c(c1)N(C1CCN(CCc3ccc(F)cc3)CC1)CC2
2. CCCS(=O)(=O)NCc1ccc(-c2cc3ccccc3c(N3CCN(CC)CC3)n2)cc1Cl.Cl [(23), hydrochloride]

1. 6.43
2. 0.9
